# Population Hoechst High Intensity Objects (%) values compiled below
System: Fibroblast
Test: Multiplex assay against human fibroblast
Assay type: toxicity, cell-based
Conditions: 48 h, 10 µM, compound concentration 10 uM, replicate 2
Could you give me the number in %? Just the number is fine.

O=C1NCN(c2ccccc2)C12CCN(CCCOc1ccc(F)cc1)CC2 [SPIRAMIDE] ... 9
CC(C)NCC(O)COc1ccc(CCOCC2CC2)cc1.Cl (centres undefined) [BETAXOLOL HYDROCHLORIDE] ... 20
CN(C)CC#Cc1ccc(OCCCc2sc(N3CCc4cccc(C(=O)Nc5nc6ccccc6s5)c4C3)nc2C(=O)O)c(F)c1 ... 14

Now look at this entry.
Tell me the measured Population Hoechst High Intensity Objects (%) of `COc1ncc(-c2ccc3nccc(-c4ccnnc4)c3c2)cc1NS(=O)(=O)c1ccc(F)cc1F` , please.
12

* * *

# Total Cell Count values compiled below
Test system: Fibroblast
Assay: Multiplex assay against human fibroblast
Format: toxicity, cell-based
Conditions: 48 h, 10 µM, compound concentration 10 uM, replicate 2
Give only the figure.

Cc1[nH]c(/C=C2\C(=O)Nc3ccc(S(=O)(=O)N(C)c4cccc(Cl)c4)cc32)c(C)c1C(=O)N1CCN(C)CC1 ... 72

Tell me the measured Total Cell Count of C[C@@H](NCCCc1cccc(C(F)(F)F)c1)c1cccc2ccccc12.Cl [CINACALCET HYDROCHLORIDE] , please.
121

Tell me the measured Total Cell Count of `OC1(c2ccc(Cl)cc2)CCN(Cc2c[nH]c3ccccc23)CC1` , please.
133

Tell me the measured Total Cell Count of COc1cccc([C@@H](C)NCCCc2ccccc2Cl)c1.Cl [TECALCET HYDROCHLORIDE] , please.
138

Tell me the measured Total Cell Count of `Cc1c(-c2ccc(O)cc2)n(Cc2ccc(OCCN3CCCCCC3)cc2)c2ccc(O)cc12` , please.
95

Tell me the measured Total Cell Count of `CCOCCn1cc(C(=O)Nc2ccc(-n3nc(-c4cccnc4)cc3C(F)(F)F)cn2)ccc1=O` , please.
42

Tell me the measured Total Cell Count of `COc1cc(-n2cnc3cc(-c4ccc(Cl)cc4)sc3c2=O)ccc1OCCN1CCCC1` , please.
167

Tell me the measured Total Cell Count of `CN(C)C(=O)/C(C#N)=C/c1ccc(-c2nc3cnc4[nH]ccc4c3n2C2CCCCC2)o1` , please.
307

* * *

# Population Normal (%) values compiled below
Test system: Fibroblast
Experiment: Multiplex assay against human fibroblast
Type: toxicity, cell-based
Details: 24 h, 1 µM, compound concentration 1 uM, replicate 2
Could you give me the number in %? Just the number is fine.

CC(C)NCC(O)COc1ccc(CCOCC2CC2)cc1.Cl (stereo not drawn) [BETAXOLOL HYDROCHLORIDE] ... 94
CN1CCN(c2ccc(OC(F)(F)F)c(Nc3ncc4c(n3)-c3c(c(C(N)=O)nn3CCO)CC4)c2)CC1 ... 94
Cc1nc(-c2cn3c(n2)-c2ccc(-c4cnn(C(C)(C)C(N)=O)c4)cc2OCC3)n(C(C)C)n1 ... 72
CC[C@H](C)C(=O)O[C@H]1C[C@@H](C)C=C2C=C[C@H](C)[C@H](CC[C@@H]3C[C@@H](O)CC(=O)O3)[C@H]21 ... 90
CNc1nc(NCc2ccc(NS(C)(=O)=O)cc2Cl)cc(-c2ccccn2)n1 ... 98

Tell me the measured Population Normal (%) of CN(C)C(=O)N[C@H]1CC[C@H](CCN2CCN(c3cccc(Cl)c3Cl)CC2)CC1.Cl [CARIPRAZINE HYDROCHLORIDE] , please.
95

Tell me the measured Population Normal (%) of `CN1CCN(CCOc2cc(OC3CCOCC3)c3c(Nc4c(Cl)ccc5c4OCO5)ncnc3c2)CC1` , please.
91

Tell me the measured Population Normal (%) of `Cc1csc2c(N[C@@H](C)CN3CCN(S(=O)(=O)c4ccc(Cl)c(Cl)c4)CC3)ncnc12` , please.
95

Tell me the measured Population Normal (%) of `C[C@@]1(C(=O)Nc2ccc(F)nc2)CCCN1c1nc(Nc2cc(C3CC3)n[nH]2)c2cccn2n1` , please.
59

Tell me the measured Population Normal (%) of CN1CCCC(n2nc(Cc3ccc(Cl)cc3)c3ccccc3c2=O)CC1.Cl (stereo not drawn) [AZELASTINE HYDROCHLORIDE] , please.
91

Tell me the measured Population Normal (%) of `COc1cc(-n2cnc3cc(-c4ccc(Cl)cc4)sc3c2=O)ccc1OCCN1CCCC1` , please.
89

Tell me the measured Population Normal (%) of `Cc1cc(C)cc(-c2cnc3cc(Cl)c(-c4cccc(O)c4)cc3c2OCCCN)c1` , please.
96

Tell me the measured Population Normal (%) of `COc1ncc(-c2ccc3nccc(-c4ccnnc4)c3c2)cc1NS(=O)(=O)c1ccc(F)cc1F` , please.
88
